- assayed_target: Rhodesain (Trypanosoma brucei rhodesiense)
- Sequence (Q95PM0 whole entry): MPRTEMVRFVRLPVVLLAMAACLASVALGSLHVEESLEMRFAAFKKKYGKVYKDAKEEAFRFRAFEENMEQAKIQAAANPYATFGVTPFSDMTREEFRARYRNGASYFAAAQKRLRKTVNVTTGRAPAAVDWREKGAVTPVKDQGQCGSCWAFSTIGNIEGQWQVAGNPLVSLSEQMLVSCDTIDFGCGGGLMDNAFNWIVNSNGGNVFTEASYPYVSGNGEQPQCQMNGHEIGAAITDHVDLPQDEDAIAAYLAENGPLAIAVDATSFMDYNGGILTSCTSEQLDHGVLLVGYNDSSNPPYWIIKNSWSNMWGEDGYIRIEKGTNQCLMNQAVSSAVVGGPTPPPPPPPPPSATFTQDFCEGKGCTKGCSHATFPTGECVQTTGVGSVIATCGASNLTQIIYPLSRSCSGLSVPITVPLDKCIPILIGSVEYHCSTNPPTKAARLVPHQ
For each record, write down the corresponding pKi.
Scale note: pKi = -log10(concentration in M).

IN: # lookup: pKi of CC(C)C[C@H](NC(=O)OC(C)(C)C)C(=O)N1CCC[C@@H]1C(=O)N1C(C(=O)OCc2ccccc2)C1C(=O)OCc1ccccc1 (mixture of isomers)
OUT: 5.82

IN: Another compound to look at: CC(C)C[C@H](NC(=O)OC(C)(C)C)C(=O)N1CCC[C@@H]1C(=O)N1C(C(=O)O)C1C(=O)OCCc1ccccc1 (mixture of isomers)
OUT: 6.80

IN: Another compound to look at: CC(C)C[C@@H](NC(=O)OC(C)(C)C)C(=O)N1CCC[C@H]1C(=O)N1[C@@H](C(=O)OCc2ccccc2)[C@@H]1C(=O)OCc1ccccc1
OUT: 4.82

IN: Another compound to look at: CC(C)C[C@H](NC(=O)OC(C)(C)C)C(=O)N1CCC[C@@H]1C(=O)N1C(C(=O)O)C1C(=O)OCC1CCCCC1 (mixture of isomers)
OUT: 6.92

IN: Another compound to look at: CC(C)C[C@H](NC(=O)OC(C)(C)C)C(=O)N1CCC[C@@H]1C(=O)N1[C@@H](C(=O)OCc2ccccc2)[C@@H]1C(=O)OCc1ccccc1
OUT: 5.77

====

For each record, write down the corresponding inhibition.
- Test system: Leishmania mexicana
- experimental_details: Inhibition of Leishmania mexicana cathepsin L-like protease CPB2.8 at 20 uM using Z-Phe-Arg-AMC as substrate by fluorometric assay relative to control

IN: # lookup: inhibition of CC(C)C[C@H](NC(=O)OC(C)(C)C)C(=O)N1CCC[C@@H]1C(=O)N1C(C(=O)OCCc2ccccc2)C1C(=O)OCCc1ccccc1 (mixture of isomers)
OUT: > 50%

IN: Another molecule to look at: CC(C)C[C@H](NC(=O)OC(C)(C)C)C(=O)N1CCC[C@@H]1C(=O)N1C(C(=O)O)C1C(=O)OC(C)(C)C (mixture of isomers)
OUT: < 50%

IN: Another molecule to look at: CC(C)C[C@H](NC(=O)OC(C)(C)C)C(=O)N1CCC[C@@H]1C(=O)N1C(C(=O)OCCc2ccccc2)C1C(=O)OCc1ccccc1 (mixture of isomers)
OUT: > 50%

IN: Another molecule to look at: CC(C)C[C@H](NC(=O)OC(C)(C)C)C(=O)N1CCC[C@@H]1C(=O)N1C(C(=O)OCc2ccccc2)C1C(=O)OCC1CCCCC1 (mixture of isomers)
OUT: > 50%

IN: Another molecule to look at: CC(C)C[C@H](NC(=O)OC(C)(C)C)C(=O)N1CCC[C@@H]1C(=O)N1C(C(=O)OCc2ccccc2)C1C(=O)OCc1ccccc1 (mixture of isomers)
OUT: > 50%

IN: Another molecule to look at: CCOC(=O)C1C(C(=O)O)N1C(=O)[C@H]1CCCN1C(=O)[C@H](CC(C)C)NC(=O)OC(C)(C)C (mixture of isomers)
OUT: < 50%

IN: Another molecule to look at: CC(C)C[C@H](NC(=O)OC(C)(C)C)C(=O)N1CCC[C@@H]1C(=O)N1C(C(=O)O)C1C(=O)OCCc1ccccc1 (mixture of isomers)
OUT: > 50%

IN: Another molecule to look at: CC(C)C[C@H](NC(=O)OC(C)(C)C)C(=O)N1CCC[C@@H]1C(=O)N1C(C(=O)O)C1C(=O)OCCCc1ccccc1 (mixture of isomers)
OUT: < 50%

IN: Another molecule to look at: CC(C)C[C@H](NC(=O)OC(C)(C)C)C(=O)N1CCC[C@@H]1C(=O)N1C(C(=O)OCc2ccccc2)C1C(=O)OC(C)(C)C (mixture of isomers)
OUT: < 50%

====

- assayed_target: Rhodesain (Trypanosoma brucei rhodesiense)
- experimental_details: Inhibition of Trypanosoma brucei rhodesiense rhodesain at 20 uM using Z-Phe-Arg-AMC as substrate by fluorometric assay relative to control
quantity_name: inhibition

IN: # lookup: inhibition of CC(C)C[C@H](NC(=O)OC(C)(C)C)C(=O)N1CCC[C@@H]1C(=O)N1C(C(=O)OCCc2ccccc2)C1C(=O)OCc1ccccc1 (mixture of isomers)
OUT: < 50%

IN: Another molecule to look at: CC(C)C[C@H](NC(=O)OC(C)(C)C)C(=O)N1CCC[C@@H]1C(=O)N1C(C(=O)OCc2ccccc2)C1C(=O)OCc1ccc2ccccc2c1 (mixture of isomers)
OUT: < 50%

IN: Another molecule to look at: CC(C)C[C@H](NC(=O)OC(C)(C)C)C(=O)N1CCC[C@@H]1C(=O)N1C(C(=O)OCCCc2ccccc2)C1C(=O)OCCCc1ccccc1 (mixture of isomers)
OUT: < 50%

====

For each record, write down the corresponding inhibition.
- assayed_target: UniProtKB P07711
- Sequence (P07711 114-333 limits assumed): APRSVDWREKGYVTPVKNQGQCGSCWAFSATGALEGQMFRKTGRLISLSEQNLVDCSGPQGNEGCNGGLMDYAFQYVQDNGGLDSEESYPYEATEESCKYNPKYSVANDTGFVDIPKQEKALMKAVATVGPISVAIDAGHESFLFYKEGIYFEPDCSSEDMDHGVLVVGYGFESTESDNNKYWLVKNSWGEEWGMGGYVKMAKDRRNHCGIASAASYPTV
- experimental_details: Inhibition of human cathepsin-L at 20 uM using Z-Phe-Arg-AMC as substrate by fluorometric assay relative to control

IN: # lookup: inhibition of CC(C)C[C@H](NC(=O)OC(C)(C)C)C(=O)N1CCC[C@@H]1C(=O)N1C(C(=O)OCc2ccccc2)C1C(=O)OCC1CCCCC1 (mixture of isomers)
OUT: < 50%

IN: Another compound to look at: CCOC(=O)C1C(C(=O)OCc2ccccc2)N1C(=O)[C@H]1CCCN1C(=O)[C@H](CC(C)C)NC(=O)OC(C)(C)C (mixture of isomers)
OUT: < 50%

IN: Another compound to look at: CC(C)C[C@H](NC(=O)OC(C)(C)C)C(=O)N1CCC[C@@H]1C(=O)N1C(C(=O)OCc2ccccc2)C1C(=O)OCc1ccccc1 (mixture of isomers)
OUT: > 50%

IN: Another compound to look at: CC(C)C[C@H](NC(=O)OC(C)(C)C)C(=O)N1CCC[C@@H]1C(=O)N1C(C(=O)O)C1C(=O)OCC1CCCCC1 (mixture of isomers)
OUT: > 50%

IN: Another compound to look at: CC(C)C[C@H](NC(=O)OC(C)(C)C)C(=O)N1CCC[C@@H]1C(=O)N1C(C(=O)OCCc2ccccc2)C1C(=O)OCc1ccccc1 (mixture of isomers)
OUT: < 50%

====

- experimental_details: Inhibition of Leishmania mexicana cathepsin L-like protease CPB2.8 using Z-Phe-Arg-AMC as substrate by fluorometric assay
// NB: equality with 2000 nM counts as False; only Ki strictly below is True

IN: Determine whether this compound shows Ki lower than 2000 nM (ties excluded): CC(C)C[C@H](NC(=O)OC(C)(C)C)C(=O)N1CCC[C@@H]1C(=O)N1C(C(=O)OCc2ccccc2)C1C(=O)OCc1ccc2ccccc2c1 (mixture of isomers)
OUT: True

IN: Another compound to look at: CC(C)C[C@H](NC(=O)OC(C)(C)C)C(=O)N1CCC[C@@H]1C(=O)N1C(C(=O)OCCc2ccccc2)C1C(=O)OCc1ccccc1 (mixture of isomers)
OUT: True

IN: Another compound to look at: CC(C)C[C@@H](NC(=O)OC(C)(C)C)C(=O)N1CCC[C@H]1C(=O)N1[C@@H](C(=O)OCc2ccccc2)[C@@H]1C(=O)OCc1ccccc1
OUT: False

IN: Another compound to look at: CC(C)C[C@H](NC(=O)OC(C)(C)C)C(=O)N1CCC[C@@H]1C(=O)N1C(C(=O)OCC2CCCCC2)C1C(=O)OCC1CCCCC1 (mixture of isomers)
OUT: True

IN: Another compound to look at: CC(C)C[C@H](NC(=O)OC(C)(C)C)C(=O)N1CCC[C@@H]1C(=O)N1C(C(=O)OCc2ccccc2)C1C(=O)OCc1ccccc1 (mixture of isomers)
OUT: False

IN: Another compound to look at: CC(C)C[C@H](NC(=O)OC(C)(C)C)C(=O)N1CCC[C@@H]1C(=O)N1C(C(=O)OCc2ccccc2)C1C(=O)OCC1CCCCC1 (mixture of isomers)
OUT: True

IN: Another compound to look at: CC(C)C[C@H](NC(=O)OC(C)(C)C)C(=O)N1CCC[C@@H]1C(=O)N1[C@H](C(=O)OCc2ccccc2)[C@H]1C(=O)OCc1ccccc1
OUT: True

IN: Another compound to look at: CC(C)C[C@H](NC(=O)OC(C)(C)C)C(=O)N1CCC[C@@H]1C(=O)N1C(C(=O)O)C1C(=O)OCCc1ccccc1 (mixture of isomers)
OUT: True

IN: Another compound to look at: CC(C)C[C@H](NC(=O)OC(C)(C)C)C(=O)N1CCC[C@@H]1C(=O)N1C(C(=O)OCCc2ccccc2)C1C(=O)OCCc1ccccc1 (mixture of isomers)
OUT: True

IN: Another compound to look at: CC(C)C[C@H](NC(=O)OC(C)(C)C)C(=O)N1CCC[C@@H]1C(=O)N1[C@@H](C(=O)OCc2ccccc2)[C@@H]1C(=O)OCc1ccccc1
OUT: False

IN: Another compound to look at: CC(C)C[C@@H](NC(=O)OC(C)(C)C)C(=O)N1CCC[C@H]1C(=O)N1[C@H](C(=O)OCc2ccccc2)[C@H]1C(=O)OCc1ccccc1
OUT: False

IN: Another compound to look at: CC(C)C[C@H](NC(=O)OC(C)(C)C)C(=O)N1CCC[C@@H]1C(=O)N1C(C(=O)O)C1C(=O)OCC1CCCCC1 (mixture of isomers)
OUT: True

IN: Another compound to look at: CC(C)C[C@H](NC(=O)OC(C)(C)C)C(=O)N1CCC[C@@H]1C(=O)N1C(C(=O)OCCCc2ccccc2)C1C(=O)OCc1ccccc1 (mixture of isomers)
OUT: True

IN: Another compound to look at: CC(C)C[C@H](NC(=O)OC(C)(C)C)C(=O)N1CCC[C@@H]1C(=O)N1C(C(=O)OCCCc2ccccc2)C1C(=O)OCCCc1ccccc1 (mixture of isomers)
OUT: True
